Give pIC50 for every item shown.
molecular target: HLA A2902 (human); experiment: 125I-probe competition, purified HLA
Kindly note that pIC50 refers to -log10 of the concentration in mol/L and answer with the value alone.

// pIC50 value for NTGILTVTY (modifications not checked) [HPV45.E2.332] : 5.85

pIC50 in this record for ATCVSHRGLY (modifications not checked) [HPV18.E2.154] : 5.38

Value of pIC50 reported for the binder VFTFPNPFPF (modifications not checked) [HPV31.E1.565] is 6.22

Value of measured pIC50 for the entry SYFGMSFIHF (modifications not checked) [HPV18/45.E1.491] : 7.21

// field: pIC50; key: LSSALEIPY (modifications not checked) [HPV31.E6.15] ; value = 6.58

Recorded values, source patent US20100272750A1.
